System: Human immunodeficiency virus 1
Assay: Antiviral activity against HIV1 DRVR P30 infected in human MT4 cells incubated for 7 days by fully automated chemiluminescent enzyme immunoassay
Format: functional, organism-based
Conditions: Human immunodeficiency virus 1, DRVR P30, MT4, 168 h
metric-name: IC50

COC(=O)N[C@H](C(=O)N[C@@H](Cc1ccccc1)[C@@H](O)CN(Cc1ccc(-c2ccccn2)cc1)NC(=O)[C@@H](NC(=O)OC)C(C)(C)C)C(C)(C)C
> 1000 nM
COc1ccc(S(=O)(=O)N(CC(C)C)C[C@@H](O)[C@H](Cc2ccccc2)NC(=O)C[C@H]2C3CO[C@H]4OC[C@@H]2C4C3)cc1 (stereo partly drawn)
425 nM
Cc1cccc(C)c1OCC(=O)N[C@@H](Cc1ccccc1)[C@@H](O)C[C@H](Cc1ccccc1)NC(=O)[C@H](C(C)C)N1CCCNC1=O
> 1000 nM
